test system: MCF7; assay: Cytotoxicity against human MCF-7 cells assessed as reduction in cell viability at 10 uM measured after 24 hrs by MTT assay relative to control; format: functional, cell-based; conditions: MCF7, 24 h
Reported endpoint: pIC50
In simple prose, pIC50 is minus the logarithm base ten of a concentration in moles per litre.

Observe how each entry below is paired with its result.
Compound: COC(=O)c1cc2c([nH]c3ccccc32)c(C)n1
Subject of test: MCF7
Reported endpoint: pIC50
Quantitative readout: 4.35
--
Compound: CC(=O)O[C@@]12CO[C@@H]1C[C@H](O)[C@@]1(C)C(=O)[C@H](O)C3=C(C)[C@@H](OC(=O)[C@H](O)[C@@H](NC(=O)OC(C)(C)C)c4ccccc4)C[C@@](O)([C@@H](OC(=O)c4ccccc4)[C@H]21)C3(C)C [DOCETAXEL ANHYDROUS]
Subject of test: MCF7
Reported endpoint: pIC50
Quantitative readout: 5.44
--
Compound: COC(=O)c1cc2c([nH]c3ccc(NC(=O)c4ccc(C(C)(C)C)cc4)cc32)c(C)n1
Subject of test: MCF7
Reported endpoint: pIC50
Quantitative readout: 5.38

Next up:
Task: Recorded pIC50 for COC(=O)c1cc2c([nH]c3ccc(NC(=O)c4cc(C(F)(F)F)cc(C(F)(F)F)c4)cc32)c(C)n1 with MCF7, please?
Result: 4.87

Origin of measurements: ChEMBL document CHEMBL4715699
